System: Monkeypox virus
TEST PROTOCOL: Antiviral activity against Monkeypox virus V77-I-823 infected in african green monkey BSC-40 cells assessed as reduction in virus-induced cytopathic effect
Assay type: functional, organism-based
CONDITIONS: V77-I-823, BSC-40
EXPERIMENTAL ENDPOINT: EC50 (µM)
Give bare numbers, in µM.

GET /values?readout=EC50&item= O=C(NN1C(=O)[C@@H]2[C@@H]3C=C[C@@H]([C@H]4C[C@@H]34)[C@@H]2C1=O)c1ccc(C(F)(F)F)cc1
0.03
